I'd appreciate it if you could supply pKd values for the items below.
Target: T1, DC-SIGN Carbohydrate Recognition Domain (CRD), His-tagged (human, UniProt Q9NNX6 250-404)
T1 construct: also called DC-SIGN CRD; not shown: His tag used for capture
T1 sequence: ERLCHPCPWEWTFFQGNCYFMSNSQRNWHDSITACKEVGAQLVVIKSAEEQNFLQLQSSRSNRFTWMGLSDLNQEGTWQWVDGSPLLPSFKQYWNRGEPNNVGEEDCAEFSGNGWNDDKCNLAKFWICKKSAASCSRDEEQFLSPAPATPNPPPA
Experiment: SPR (Biacore 8K), antibody captured on anti-human IgG Fc chip, DC-SIGN CRD as analyte
Reminder that pKd is minus the log10 of a molar concentration.

Entry 952G04 Parental (antibody, V domains shown) VH: QVTLRESGPALVKPTQTLTLTCTFSGFSLSTSGVSVTWIRQPPGKALEWLALIDWDDDKYYSTSLKTRLAISKDTSKNQVVLTMTNMDPVDTATYYCARTPSGSYGRYFDLWGRGTLVTVSS VL: DIQMTQSPSTLSASVGDRVTITCRASQSISTWLAWYQQKPGKAPKLLIYEASSLESGVPSRFSGSGSGTEFTLTISSLQPDDFATYYCQQYNSYWTFGQGTKVEIKR ; pKd = 6.46

Entry 550E03 Parental (antibody, V domains shown, also called 550Ee03) VH: QVTLRESGPALVKPTQTLTLTCTFSGFSLSTSGMSVSWIRQPPGKALEWLALIDWDDDKYYSTSLKTRLTISKDTSKNQVVLTMTNMDPVDTATYYCARMALRHAFDAWGQGTMVTVSS VL: QSVLTQPPSVSGAPGQRVTISCTGSSSNIGAGYDVHWYQQLPGTAPKLLIYVNSNRPSGVPDRFSGSKSGTSASLAITGLQAEDEADYYCQSYDSSLSGWVFGGGTKLTVLG ; pKd = 6.28

Entry 958N05 Parental (antibody, V domains shown) VH: QVTLRESGPALVKPTQTLTLTCTFSGFSLSTSGISVSWIRQPPGKALEWLALIDWDDDKYYSTSLKTRLTISKDTSKNQVVLTMTNMDPVDTATYYCARTPSGSYGRYFDLWGRGTLVTVSS VL: DIQLTQSPSTLSASVGDRVTITCRASQSISNWLAWYQQKPGKAPKLLIYKASSLESGVPSRFTGSGSGTEFTLTISSLQPDDFATYYCQQYNSYWTFGQGTKVEIKR ; pKd = 6.76

Entry 906C18 Parental (antibody, V domains shown) VH: EVQLVESGGGLVQPGGSLRLSCAASGFTFNNYWMNWVRQAPGKGLEWVANIRQDGSEKYYVDSVKGRFTISRDNAKNSLFLQMNSLRAEDTAVYYCARERAYCSTTSCPDYSNDYWGQGTLVTVSS VL: EIVMTQSPATLSVSPGERATLSCRASQTINNNLAWFQQKPGQTPRLLIYGASTGATGIPARFSGSGSGTEFTLTISSLQSEDFAVYYCQQYNNWPRGLTFGGGTKVEIKR ; pKd = 5.71

Entry 914M09 Parental (antibody, human IgG1, kappa, V domains shown) VH: QVQLQESGPGLVKPSETLSLTCAVSGGSISSYYWNLIRQPAGKGLEWIGRIYTSGSTNYNPSLKSRVTMSVDTSKNQFSLKLSSVTAADTAVYYCARDSGGFYYYYGMDVWGQGTTVTVSS VL: DIQLTQSPSFLSASVGDRVTITCRASQGISSYLAWYQQKPGKAPKLLIYAASTLQGGVPSRFSGSGSGTEFTLTISSLQPEDFATYHCQQLNSYPWTFGQGTKVEIKR ; pKd = 6.08

Entry 960K03 Parental (antibody, V domains shown) VH: QVTLRESGPALVKPTQTLTLTCTFSGFSLSTGGMCVSWIRQPPGKALEWLALIDWDDDKYYSTSLKTRLTISKDTSKNQLVLTMTNMDPVDTATYYCARAHSGSYFDFWGQGTLVTVSS VL: DIQMTQSPSTLSASVGDRVTITCRASQRISNWLAWYQQKPGKAPKLLIYKASSLESGVPSRFSGSGSGTEFTLTISSLQPDDFATYYCQQFNSYWTFGQGTKVEIKR ; pKd = 6.02

Entry 2B2 (parental antibody) (antibody, V domains shown, also called antibody 2B2) VH: EVQLQQSGAELVRPGSSVKMSCKTSGYTFTNYGINWVKQRPGQGLEWIGYIYIGNDYTEYNERFKGKATLTSDTSSSTAHIQLNSLTSEDSAIYFCARLYYGSSLYSYAMDYWGQGTSVTVSS VL: DIVMTQAAPSVSVTPGESVSISCRSSKSLLHSSGNTYLYWFLQRPGQSPQLLISRMSNLASGVPDRFSGSGSGTAFTLRISRVEAEDVGVYYCMQHLEYPYTFGGGTKLELK ; pKd = 7.49
